# CD measurements, system: UniProt:Q64669
# Sequence (Q64669 whole entry): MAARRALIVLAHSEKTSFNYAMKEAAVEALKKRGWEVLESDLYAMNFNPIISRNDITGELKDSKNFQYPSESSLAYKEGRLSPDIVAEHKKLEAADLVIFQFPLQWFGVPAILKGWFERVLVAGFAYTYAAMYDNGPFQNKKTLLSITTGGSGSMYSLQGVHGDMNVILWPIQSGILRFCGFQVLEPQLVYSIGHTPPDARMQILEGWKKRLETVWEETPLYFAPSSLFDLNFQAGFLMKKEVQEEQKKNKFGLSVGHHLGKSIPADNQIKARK

CC(C)=CCc1c(O)cc(O)c2c1O[C@H](c1ccc(O)cc1)CC2=O	> 30 µM
CC(C)=CCc1c(O)cc2c(c1O)C(=O)CC(c1ccc(O)cc1)O2 (centres undefined)	> 30 µM
COc1cc(O)c(CC=C(C)C)c(O)c1C(=O)/C=C/c1ccc(O)cc1	1.3 µM

--- query ---
Exercise: Entry COc1cc(O)c(CC=C(C)C)c2c1C(=O)CC(c1ccc(O)cc1)O2 (centres undefined) has what CD?
Key: > 50 µM

* * *

# ASSAY_SYSTEM: Estrogen receptor (Homo sapiens, UniProt P03372)
# Sequence (P03372 whole entry): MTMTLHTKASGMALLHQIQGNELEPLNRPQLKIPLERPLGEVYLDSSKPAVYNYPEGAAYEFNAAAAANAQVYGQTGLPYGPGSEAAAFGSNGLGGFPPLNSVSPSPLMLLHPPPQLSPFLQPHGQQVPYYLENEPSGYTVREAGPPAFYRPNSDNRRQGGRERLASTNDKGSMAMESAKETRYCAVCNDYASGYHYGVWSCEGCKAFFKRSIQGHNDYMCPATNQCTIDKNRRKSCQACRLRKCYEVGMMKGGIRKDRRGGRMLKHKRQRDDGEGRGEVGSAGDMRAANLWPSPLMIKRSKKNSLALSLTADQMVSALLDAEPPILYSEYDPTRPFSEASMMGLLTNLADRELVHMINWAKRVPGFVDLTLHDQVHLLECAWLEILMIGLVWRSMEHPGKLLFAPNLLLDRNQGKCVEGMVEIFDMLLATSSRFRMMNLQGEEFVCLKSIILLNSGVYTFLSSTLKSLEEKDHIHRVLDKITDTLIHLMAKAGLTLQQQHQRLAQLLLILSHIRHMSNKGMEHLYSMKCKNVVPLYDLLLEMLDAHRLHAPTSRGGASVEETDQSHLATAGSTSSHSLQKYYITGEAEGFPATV
# ASSAY_REMARKS: Estrogenic activity at estrogen receptor alpha in human Ishikawa cells assessed as induction of alkaline phosphatase activity using p-Nitrophenol phosphate as substrate pretreated for 96 hrs followed by substrate addition measured every 15 secs by scanning spectrophotometric analysis
# Format: cell-based
# STATED_CONDITIONS: read-out: EC50
MEASURED_PARAMETER: EC50 (nM)
Answer in nM, number only, no unit symbol.

COc1cc(O)c(CC=C(C)C)c2c1C(=O)CC(c1ccc(O)cc1)O2 (configuration not stated) [ISOXANTHOHUMOL]	1400

--- query ---
Exercise: Lookup: EC50 / Estrogen receptor (Homo sapiens, UniProt P03372) / CC(C)=CCc1c(O)cc2c(c1O)C(=O)CC(c1ccc(O)cc1)O2 (configuration not stated)
Key: 400

* * *

# System: Ishikawa
# ASSAY_REMARKS: cells
# STATED_CONDITIONS: Homo sapiens, 96 h
# Description: Cytotoxicity against human Ishikawa cells after 96 hrs by SRB assay
MEASURED_PARAMETER: pIC50
Formally, pIC50 is defined as -log10 of the concentration c, with c in mol/L.

COc1cc(O)c(CC=C(C)C)c2c1C(=O)CC(c1ccc(O)cc1)O2 (centres undefined)	4.60
CC(C)=CCc1c(O)cc(O)c2c1O[C@H](c1ccc(O)cc1)CC2=O	4.72

--- query ---
Exercise: Entry COc1cc(O)c(CC=C(C)C)c(O)c1C(=O)/C=C/c1ccc(O)cc1 has what pIC50?
Key: 5.38

The measurements presented in this section are drawn from ChEMBL document CHEMBL4190325.
